# subject-of-test: human TrkA receptor (Homo sapiens (Human))
# Sequence (P04629 33-796): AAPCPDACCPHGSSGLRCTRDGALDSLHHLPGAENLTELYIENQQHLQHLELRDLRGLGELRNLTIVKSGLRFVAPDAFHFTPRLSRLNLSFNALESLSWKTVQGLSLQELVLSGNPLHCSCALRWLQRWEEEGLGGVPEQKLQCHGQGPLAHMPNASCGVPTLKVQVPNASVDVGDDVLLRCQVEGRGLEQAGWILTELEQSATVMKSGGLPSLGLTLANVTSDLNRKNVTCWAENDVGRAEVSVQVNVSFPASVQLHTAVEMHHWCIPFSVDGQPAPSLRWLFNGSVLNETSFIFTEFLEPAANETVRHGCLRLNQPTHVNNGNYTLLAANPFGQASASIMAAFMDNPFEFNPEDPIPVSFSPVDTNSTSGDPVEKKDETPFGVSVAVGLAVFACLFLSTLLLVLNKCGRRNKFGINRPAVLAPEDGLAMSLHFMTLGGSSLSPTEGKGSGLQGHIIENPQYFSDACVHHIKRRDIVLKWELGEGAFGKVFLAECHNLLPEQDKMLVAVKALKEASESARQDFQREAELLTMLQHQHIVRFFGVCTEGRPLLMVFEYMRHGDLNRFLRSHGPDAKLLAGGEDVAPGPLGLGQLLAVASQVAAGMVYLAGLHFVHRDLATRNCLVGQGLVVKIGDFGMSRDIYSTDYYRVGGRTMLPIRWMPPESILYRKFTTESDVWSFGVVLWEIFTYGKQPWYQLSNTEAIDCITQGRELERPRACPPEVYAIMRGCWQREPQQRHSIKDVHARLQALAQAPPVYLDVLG
# test-details: TrkA functional activity, DiscoverX PathHunter assay
# measurement-setup: U2OS cells expressing human TrkA-PK, Shc1-EA and p75NTR; compound 1 h, then NGF at ~80% of maximal response for 3 h; luminescence
readout-label: pIC50
Units for pIC50: none; it is -log10 of a concentration expressed in mol/L.

Cn1ccc(-c2cc(C(=O)Nc3c4cc(C#N)ccc4nn3-c3ccccc3)ccc2C(F)(F)F)n1	8.06
O=C(Nc1c2cc(C(O)C(F)F)ccc2nn1-c1ccccc1)c1cc(-c2ncccn2)c(C(F)(F)F)cc1F (single isomer, unassigned; isomer b) [Compound 59]	8.31

With those in mind, consider the next compound.
Query string: Param item = CC(O)c1ccc2c(NC(=O)c3cc(-c4ncccn4)c(C(F)(F)F)cc3Cl)n(-c3ccccc3)nc2c1 (single isomer, unassigned; isomer b) [Compound 38] ; retrieve measured pIC50.
Result string: 8.31

###

# subject-of-test: human TrkA receptor (Homo sapiens (Human))
# test-details: TrkA functional activity, DiscoverX PathHunter assay
# measurement-setup: U2OS cells expressing human TrkA-PK, Shc1-EA and p75NTR; compound 1 h, then NGF at ~80% of maximal response for 3 h; luminescence
List of pIC50 values.
Units for pIC50: none; it is -log10 of a concentration expressed in mol/L.

Cn1ccc(-c2cc(C(=O)Nc3c4ncc(C(N)=O)cc4nn3-c3ccccc3)ccc2C(F)(F)F)n1	8.55

Query string: Param item = O=C(Nc1c2ncc(C(O)CO)cc2nn1-c1ccccc1)c1cc(-c2ncccn2)c(C(F)(F)F)cc1Cl (single isomer, unassigned; isomer a) [Compound 64] ; retrieve measured pIC50.
Result string: 7.82

Query string: Next record, please: CC(O)c1ccc2c(NC(=O)c3cc(-c4ncccn4)c(C(F)(F)F)cc3Cl)n(-c3ccccc3)nc2c1 (single isomer, unassigned; isomer a) [Compound 37]
Result string: 8.36

Query string: Next record, please: `O=C(NCCO)c1ccc2c(NC(=O)c3cc(-c4ncccn4)c(C(F)(F)F)cc3F)n(-c3ccccc3)nc2c1`
Result string: 7.96

Query string: Next record, please: CC(O)c1ccc2nn(-c3ccccc3)c(NC(=O)c3cc(-c4cc[nH]n4)c(C(F)(F)F)cc3F)c2n1 (single isomer, unassigned; isomer a) [Compound 31]
Result string: 8.28

Query string: Next record, please: `O=C(Nc1c2ccc(CO)cc2nn1-c1ccccc1)c1cc(-c2cc[nH]n2)c(C(F)(F)F)cc1F`
Result string: 8.92

Query string: Next record, please: CC(O)c1ccc2c(NC(=O)c3cc(-c4ncccn4)c(C(F)(F)F)cc3F)n(-c3ccccc3)nc2c1 (single isomer, unassigned) [Compound 20]
Result string: 8.54

Query string: Next record, please: `CC(C)(O)c1cnc2c(NC(=O)c3cc(-c4cc[nH]n4)c(C(F)(F)F)cc3F)n(-c3ccccc3)nc2c1`
Result string: 8.59

Query string: Next record, please: O=C(Nc1c2ccc(C(O)C(F)(F)F)cc2nn1-c1ccccc1)c1cc(-c2ncccn2)c(C(F)(F)F)cc1F (single isomer, unassigned) [Compound 53]
Result string: 7.54

Query string: Next record, please: CC(O)c1ccc2nn(-c3ccccc3)c(NC(=O)c3ccc(C(F)(F)F)c(-c4ccn(C)n4)c3)c2c1 (single isomer, unassigned; isomer a) [Compound 23]
Result string: 8.43

Query string: Next record, please: `CC(C)(O)c1ccc2c(NC(=O)c3cc(-c4ncccn4)c(C(F)(F)F)cc3Cl)n(-c3ccccc3)nc2c1`
Result string: 8.77

Query string: Next record, please: O=C(Nc1c2ccc(C(O)C(F)(F)F)cc2nn1-c1ccccc1)c1cc(-c2ncccn2)c(C(F)(F)F)cc1F (single isomer, unassigned) [Compound 52]
Result string: 8.55
